# System: HCT-15 colon
# assay procedure: NCI tumour cell line growth inhibition, 48 h
recorded endpoint: TGI

Suppose we examine the compound COC(=O)[C@H](CC(C)C)NC(=O)[C@H](Cc1ccccc1)N1CC2C=CC1C2 (stereo not given in full) ; what TGI value has been reported?
> 100 µM

Quick one: CC(C)(C)NC1=NC(C(F)(F)F)(C(F)(F)F)NC(=O)N1
> 100 µM

Quick one: O=C([O][Hg][c]1ccccc1)c1ccccc1
1.79 µM

Quick one: COc1ccc(-c2coc3cc(O)ccc3c2=O)cc1
> 100 µM

Quick one: CC(=O)OCC1OC(N2C(=O)NC(=O)C3C=C4CCCCC4=CC32)CC1OC(C)=O (stereo not given)
> 100 µM

Quick one: COC(=O)CN(CC(=O)NCCCBr)C1CCCCC1N(CC(=O)OC)CC(=O)OC (stereo not given)
> 100 µM

Quick one: COC(=O)C12CCC(C)(C)CC1C1=CCC3C4(C)CC(O)C(O)C(C)(C(=O)OC)C4CCC3(C)C1(CO)CC2 (stereo not given)
29.1 µM

Quick one: O=C(c1ccccc1)C(Cl)C(Cl)c1ccccc1 (stereo not given)
9.03 µM

Quick one: Cc1ccc(/C=C/C(=O)Oc2ccc(/C=C3\CCC/C(=C\c4ccc(OC(=O)/C=C/c5ccc(C)cc5)cc4)C3=O)cc2)cc1
> 100 µM

Quick one: Cc1cc(=O)[nH]c(CNC(=O)c2ccc3ccccc3c2)n1
> 100 µM

====

# System: NCI-H460 lung
# assay procedure: NCI tumour cell line growth inhibition, 48 h
recorded endpoint: TGI (µM)
Answer with a number only, understood to be in µM.

Reference set (3 entries):
molecular string	recorded endpoint	endpoint unit	endpoint result
CCOC(=O)c1c(NS(=O)(=O)c2ccc(C)cc2)sc2c1CCCC2	TGI	µM	78.8
COc1cc(OC)cc(Oc2cnc3cc(N)cc(N)c3n2)c1	TGI	µM	41.2
CC(=O)C1=C(C)O[C@@H]2O[C@H](COCc3ccccc3)[C@@H](OCc3ccccc3)[C@H](O)[C@@H]2S1	TGI	µM	38.9

Here is another molecule to look at.
Suppose we examine the molecule CN(C)C(=O)Oc1c(Br)cc(Br)cc1C(=O)OCc1ccccc1 ; what TGI value has been reported?
56.5

====

# System: DMS 273 small cell lung
# assay procedure: NCI tumour cell line growth inhibition, 48 h
recorded endpoint: TGI

Reference set (4 entries):
compound	measured target	TGI
O=C1C(=c2ccc(=C3C(=O)c4ccc([N+](=O)[O-])cc4[N+]3=O)cc2)N([O-])c2cc([N+](=O)[O-])ccc21	DMS 273 small cell lung	> 100 µM
Nc1nc(N)c(CCCCc2ccccc2)c(C=O)n1	DMS 273 small cell lung	39.1 µM
CC[C@@]1(O)C[C@H](OC2CC(N(C)C)C(O)C(C)O2)c2c(cc3c(c2O)C(=O)c2c(O)ccc(O)c2C3=O)[C@H]1C(=O)OC (some centres undefined)	DMS 273 small cell lung	0.406 µM
COc1cccc2c1C(=O)c1c(O)c3c(c(O)c1C2=O)C[C@@](O)(C(C)=O)CC3S(=O)(=O)O (some centres undefined)	DMS 273 small cell lung	> 100 µM

Suppose we examine the compound CN(C)CCNC(=O)c1cccc2ccc(-c3ccc(Br)cc3)nc12 ; what TGI value has been reported?
5.81 µM

Quick one: Nc1nc(NCCOCP(=O)(O)O)c([N+](=O)[O-])c(=O)[nH]1
> 100 µM

Quick one: CC1(C)NC(=O)N(CCCCCCN2C(=O)NC(C)(C)C2=O)C1=O
> 100 µM

Quick one: COC(=O)[C@H](CC(C)C)NC(=O)[C@H](Cc1ccccc1)N1CC2C=CC1C2 (some centres undefined)
> 100 µM

Quick one: Cc1cc(=O)[nH]c(CNC(=O)c2ccc3ccccc3c2)n1
> 100 µM

Quick one: COC(=O)Cc1c([C@@]2(C)CCCC(C)(C)C2)ccc2c1C(=O)OC2
21 µM

Quick one: Cc1[nH]c(=O)nc(N/N=C/c2ccc(O)cc2)c1C(=O)Nc1ccc(O)cc1
> 100 µM

Quick one: CC(=O)C(=O)NC1/C=C(C)\C=C/C(O)C/C=C(C)\C=C/C(O)CC2OC(=O)C1(C)C(=O)C2C (centres undefined)
> 100 µM

Quick one: COc1cccc2c1OC1Sc3ccccc3-c3nn(-c4ccccc4)c-2c31 (centres undefined)
> 100 µM

Quick one: COc1ccc2c(c1)[n+]([O-])c(-c1cccc(Cl)c1)c(N)[n+]2[O-]
> 100 µM

Quick one: O=C(O)CN(c1ccccc1)S(=O)(=O)c1cccc([N+](=O)[O-])c1
> 100 µM

Quick one: c1ccc2c(c1)SC(=C1Sc3ccccc3S1)S2
> 100 µM

====

Recorded log10 of TGI for the following compounds
# Test system: RPMI-8226 leukemia
# assay procedure: NCI tumour cell line growth inhibition, 48 h
// units: µM (pre-log); metric: TGI; scale: log10

Report log10 of TGI for O=C1/C(=C/c2ccc([N+](=O)[O-])s2)Oc2cc(Cl)ccc21 tested on RPMI-8226 leukemia.
0.35

Quick one: CCCCCCCCCCCCCC[n+]1ccccc1
0.12

====

Recorded GI50 for the following compounds
# System: HOP-62 NSCLC
# assay procedure: NCI tumour cell line growth inhibition, 48 h

Report GI50 for CNS(=O)(=O)OCC1OC(n2cnc3cncnc32)C(O)C1O (centres undefined) tested on HOP-62 NSCLC.
> 100 µM

Quick one: O=[N+]([O-])c1ccc(/C=C/c2nc3ccc(Cl)cc3[nH]2)cc1
37.7 µM

Quick one: COc1cc2c3c(n(CCCN(CCCN(CCCn4c5c(c6ccccc6c4=O)C(=O)c4ccccc4-5)C(=O)OC(C)(C)C)C(=O)OC(C)(C)C)c(=O)c2cc1OC)-c1cc2c(cc1C3=O)OCO2
> 100 µM

Quick one: CS(=O)(=O)N1CCC(n2c(=O)c(Oc3ccc(F)cc3F)cc3cnc(NC4CCOCC4)nc32)CC1
> 25 µM

====

# Tested on: NCI-H23 lung
# assay procedure: NCI tumour cell line growth inhibition, 48 h
recorded endpoint: TGI

Reference set (8 entries):
compound	TGI
O=C([O][Hg][c]1ccccc1)c1ccccc1	4.84 µM
O=C(CCCn1c2c(sc3ccccc32)c(=O)n2nnc(-c3ccccc3)c12)NCCc1cnc[nH]1	9.6 µM
CCn1c(-c2nonc2N)nc2c(C#CC(C)(C)O)ncc(OC3CCNCC3)c21	> 25 µM
Oc1cc(N2CC2)c(O)cc1N1CC1	1.8 µM
COc1cc2c(NCCCCCO)ncnc2c(OC)c1OC	> 100 µM
Cc1cc(=O)[nH]c(CNC(=O)c2ccc3ccccc3c2)n1	> 100 µM
NC1N=Nc2ccccc21 (stereo unspecified)	> 100 µM
CC(=O)O[C@H]1C(=O)[C@@]2(C)[C@H]([C@H](OC(=O)c3ccccc3)[C@]3(O)C[C@H](OC(=O)[C@H](O)[C@@H](NC(=O)c4ccccc4)c4ccc5ccccc5c4)C(C)=C1C3(C)C)[C@]1(OC(C)=O)CO[C@@H]1C[C@@H]2O	> 45.4 µM

Suppose we examine the compound CC1CCCC(C(=O)CC2CC(=O)NC(=O)C2)C1=O (stereo unspecified) ; what TGI value has been reported?
> 100 µM

Quick one: CCOC(=O)c1[nH]cc(C)c1-c1cccn1-c1ccc(Cl)cc1[N+](=O)[O-]
> 100 µM

Quick one: O=Cc1cccc2ccc3ccccc3c12
66.5 µM

Quick one: CN(c1ccccc1)S(=O)(=O)c1ccc([N+](=O)[O-])cc1
> 100 µM

Quick one: CC1(C)OC[C@H](C(=N)OCc2ccccc2)O1
> 100 µM

Quick one: CC(=O)C(=O)NC1/C=C(C)\C=C/C(O)C/C=C(C)\C=C/C(O)CC2OC(=O)C1(C)C(=O)C2C (stereo unspecified)
> 100 µM

Quick one: Nc1nc(N)c(CCCCc2ccccc2)c(C=O)n1
41.3 µM

Quick one: Nn1c(Nc2ccc(S(N)(=O)=O)cc2)nnc(/C=C/c2c(O)ccc3ccccc23)c1=O
22.4 µM

====

Recorded TGI for the following compounds
# Test system: COLO 205 colon
# assay procedure: NCI tumour cell line growth inhibition, 48 h

Reference set (5 entries):
compound	endpoint result
Cc1c(C(=O)O)n2c(=S)[nH]nc2c2ccccc12	> 100 µM
COc1ccc(Nc2nc3cc(C(F)(F)F)ccc3nc2-c2ccccc2)cc1OC	> 100 µM
COC(=O)Nc1nc2ccc(S(=O)(=O)Nc3ccccn3)cc2[nH]1	> 100 µM
O=C(CN1CCN(Cc2ccccc2Cl)CC1)NC1CC(=O)c2c(Br)sc(Br)c21 (stereo not given)	38.4 µM
COc1ccc(-n2c(SC(CN3CCOCC3)CN3CCCC3=O)nc3ccccc3c2=O)cc1 (stereo not given)	> 100 µM

Here is another compound to look at.
Suppose we examine the compound O=C1c2cc(I)ccc2N2CCN=C2N1Cc1ccccc1 ; what TGI value has been reported?
> 100 µM
